Biological target: full-length beta-Catenin (Uniprot ID P35222) (Homo sapiens (Human)) (UniProt P35222)
Experiment: fluorescence polarization competition; peptide titrated against 10 nM full-length beta-catenin + 10 nM 5FAM-TCF4(10-53)
Starred links: 1 amine or outer side, 2 acyl side, 3 side chain; linkers in the order of their positions; H or OH if unused. Positions of bridges follow the written chain, without caps; N, C: chain ends. Non-standard residues stand in square brackets, D forms with d. Primed or numbered codes have the meaning given here. PyrS2″ = (S)-3-amino-1-((pent-4-en-1-yloxy)carbonyl)pyrrolidine-3-carboxylic acid (stapling residue), C=CCCCOC(=O)N1CC[C@@](N[*:1])(C(=O)[*:2])C1; B5(4) = 2,2-bis(4-pentenyl)glycine = 2-amino-2-(pent-4-en-1-yl)hept-6-enoic acid (stitching residue), C=CCCCC(CCCC=C)(N[*:1])C(=O)[*:2]; B5(5) = 2,2-bis(4-pentenyl)glycine, 2-amino-2-(pent-4-en-1-yl)hept-6-enoic acid (stitching residue), C=CCCCC(CCCC=C)(N[*:1])C(=O)[*:2]; TfeGA = (S)-2-amino-3-((carboxymethyl)(2,2,2-trifluoroethyl)amino)propanoic acid, O=C([C@H](CN(CC(=O)[*:3])CC(F)(F)F)N[*:1])[*:2]; PyrS2 = (S)-3-amino-1-((pent-4-en-1-yloxy)carbonyl)pyrrolidine-3-carboxylic acid, C=CCCCOC(=O)N1CC[C@@](N[*:1])(C(=O)[*:2])C1; B5(25) = 2-amino-2-(pent-4-en-1-yl)hept-6-enoic acid (stitching residue), C=CCCCC(CCCC=C)(N[*:1])C(=O)[*:2]; MorphAsn = (S)-2-amino-4-morpholino-4-oxobutanoic acid, O=C(C[C@H](N[*:1])C(=O)[*:2])N1CCOCC1; B5(3) = 2,2-bis(4-pentenyl)glycine (stitching residue), C=CCCCC(CCCC=C)(N[*:1])C(=O)[*:2]; B6 = 2-amino-2-(hex-5-en-1-yl)oct-7-enoic acid, C=CCCCCC(CCCCC=C)(N[*:1])C(=O)[*:2]; Phe(3-CONH2) = NC(=O)c1cccc(C[C@H](N)C(=O)O)c1; Phe(3-COOH) = N[C@@H](Cc1cccc(C(=O)O)c1)C(=O)O; 2F3MeF = Cc1cccc(C[C@H](N[*:1])C(=O)[*:2])c1F; Phe(2-CF3) = N[C@@H](Cc1ccccc1C(F)(F)F)C(=O)O; Phe(3-Cl) = N[C@@H](Cc1cccc(Cl)c1)C(=O)O; Phe(2-Cl) = N[C@@H](Cc1ccccc1Cl)C(=O)O; Bta = N[C@@H](Cc1csc2ccccc12)C(=O)O; Lys(iPr) = CC(C)NCCCC[C@H](N)C(=O)O; αAllylPro = C=CC[C@@]1(C(=O)O)CCCN1; tBuAla = CC(C)(C)C[C@H](N)C(=O)O; 3Thi = N[C@@H](Cc1ccsc1)C(=O)O; Cha = N[C@@H](CC1CCCCC1)C(=O)O; S8 = C=CCCCCCC[C@](C)(N)C(=O)O; TfeGA″ = not defined here
value-type: IC50 (nM)
Just the number in nM, nothing appended.

Some solved entries appear below for comparison.
Ac-[αAllylPro]N[Cha][B5(5)]DQ[Lys(iPr)]AFN[PyrS2″][Phe(3-CONH2)][Bta]Q-NH2 (staple 1-4, 4-11) [I-2164]
1180
Ac-[αAllylPro]D[tBuAla][B5(4)]D[TfeGA″]AAFL[PyrS2″][3Thi][Bta]T-NH2 (staple 1-4, 4-11; reading uncertain) [I-1706]
24
Ac-[αAllylPro]D[tBuAla][B5(3)]DDAAFT[S8][Phe(2-Cl)][Bta]Q-NH2 (staple 1-4, 4-11; also: later eluting staple isomer) [I-1087]
9
Ac-[αAllylPro]D[tBuAla][B5(3)]DEAAFL[PyrS2″][Phe(2-Cl)][Bta]T-NH2 (staple 1-4, 4-11; also: staple stereoisomer: later eluting HPLC peak) [I-1071]
1260
Ac-[αAllylPro]N[Cha][B5(25)]DQK(CF3CO)AFL[PyrS2]F[Bta][MorphAsn]-NH2 (staple 1-4, 4-11) [I-2525]
4290

## Input Endpoint output: IC50 of Ac-[αAllylPro]D[tBuAla][B5(5)]D[TfeGA]AAFL[PyrS2″][3Thi][Bta][Phe(3-CONH2)]-NH2 (staple 1-4, 4-11; also: staples hydrogenated: -CH=CH- reduced to -CH2-CH2-) [I-1718] . Value?
## Output 382

## Input Endpoint output: IC50 of Ac-[αAllylPro]D[tBuAla][B5(3)]D[Phe(3-COOH)]AAFL[PyrS2″][2F3MeF][Phe(3-Cl)]S-NH2 (staple 1-4, 4-11) [I-2226] . Value?
## Output 97

## Input Endpoint output: IC50 of Ac-[αAllylPro]D[tBuAla][B6]D[Phe(3-COOH)]QAFL[PyrS2][Phe(2-CF3)][Bta]A-NH2 (staple 1-4, 4-11) [I-2517] . Value?
## Output 61
